All values here come from PubChem BioAssay AID248.

Tested on: L1210 leukemia ip in BDF1 mice, survival T/C
Protocol Notes: NCI In Vivo Anticancer Drug Screen. Data for tumor model L1210 Leukemia (intraperitoneal) in B6D2F1 (BDF1) mice
Protocol Conditions: endpoint: mean survival time; dose: 100.0 mg/kg/injection; schedule: Q01DX009 (ip); vehicle: saline with Tween-80; higher = longer survival
Inconclusive results and toxic doses are left out. Peptide text beside a SMILES is read from it. * marks the point of attachment. Cbz = O=C(OCc1ccccc1)*; OtBu = CC(C)(C)O*
Measured Attribute: T/C

# Compound, Result
records = [
    ("COC(=O)C(CCC(=O)OC(C)(C)C)NC(=O)C(NC(=O)OCc1ccccc1)C(C)C (stereo not drawn) (Cbz-Val-Glu(OtBu)-OMe; configuration not given here)", "98 % of control"),
    ("CC(=O)OC(c1ccccc1)c1ccccn1 (stereo not drawn)", "98 % of control"),
    ("CC(C)(C)c1ccc(O)c(C(C)(C)C)c1", "96 % of control"),
    ("CCOC(=O)C[n+]1ccc(C(=O)c2cc3ccccc3[nH]2)cc1", "93 % of control"),
    ("CC(=O)CC(C)=NCCN=C(C)CC(C)=O", "91 % of control"),
    ("CC(/C=C/c1ccc(O)cc1)=N\\O", "89 % of control"),
    ("CCCCOC(=O)CCSCCC(=O)OCCCC", "102 % of control"),
    ("O=[N+]([O-])c1ccc(N=Nc2ccccc2)cc1", "109 % of control"),
    ("O=C1C(Br)=Cc2cccc3cccc1c23", "101 % of control"),
    ("COc1cccc2c(=O)c(COC(C)=O)c(C)[nH]c12", "106 % of control"),
    ("CC(C)CC(Br)C(=O)NCC(=O)NC(Cc1ccccc1)C(=O)O (stereo not drawn)", "96 % of control"),
    ("Cc1c(C)c(NC(=O)/C=C/C(=O)O)c(C)c(C)c1NC(=O)/C=C\\C(=O)O", "104 % of control"),
    ("O=C1C(Cl)=C(Nc2ccccc2)C(=O)C(Cl)=C1Nc1ccccc1", "87 % of control"),
    ("O=C1OC(=O)C2CC(Cl)C(Cl)CC12 (stereo not drawn)", "89 % of control"),
    ("Cc1ncc(C(C)(O)c2ccccc2)n1C (stereo not drawn)", "105 % of control"),
    ("CC1(C)CC(=O)N/C1=C\\C1NC(=O)CC1(C)C (stereo not drawn)", "96 % of control"),
    ("C/C(Cc1ccccc1)=N\\O", "104 % of control"),
    ("C1C2C3OC3C1C1C2C2C3CC(C4OC34)C12 (stereo not drawn)", "94 % of control"),
]
